system: Wolbachia pipientis; assay: Anti-Wolbachia Cell-Based Screen; format: functional; set-up: scale not given: in the data most compounds retested in dose-response had high values; conditions: 5 µM
The campaign covered roughly 48,000 compounds. About 13,000 (27%) showed an effect of 50% or more. The list shows a part of the results.
observation_type: Percent Effect (%)

[[record]]
compound = "CN(C)CC1(O)CCN(S(=O)(=O)c2ccc(Cl)cc2)C1 (centres undefined)"
measured = 106.4

[[record]]
compound = "Cc1ccoc1C(=O)N1CC[C@H]2[C@H](C[C@@H](CN3CCCC3)N2C)C1.O=C(O)C(F)(F)F.O=C(O)C(F)(F)F"
measured = 96.15

[[record]]
compound = "Cc1oncc1C(=O)N1C[C@H]2CCCC(N(C)Cc3cccs3)[C@H]2C1.O=C(O)C(F)(F)F (some centres undefined)"
measured = 13.96

[[record]]
compound = "Cc1cc(C(=O)N2C[C@@H]3COC[C@]3(CN(C)C)C2)c(C)o1.O=C(O)C(F)(F)F"
measured = -9.437


====

tested on: Wolbachia pipientis; assay: Anti-Wolbachia Cell-Based Screen; type: functional; parameters: scale not given: in the data most compounds retested in dose-response had high values; settings: 5 µM
About 13,000 (27%) of roughly 48,000 compounds showed an effect of 50% or more. The list shows a part of the results.
observation_type: Percent Effect (%)

[[record]]
compound = "O=C(NCCNc1ncccn1)NCCSC(F)(F)F"
measured = -9.16

[[record]]
compound = "O=C(Cc1ccc(S(=O)(=O)C(F)F)cc1)N1CCCC1"
measured = -6.682

[[record]]
compound = "CN(C)C[C@@H]1CN(C(=O)Cc2cccc(O)c2)C[C@@H]1CO"
measured = -7.089

[[record]]
compound = "CCCN(C)c1ccc(C(=O)NCc2ccnc(C)n2)cc1"
measured = 14.15

[[record]]
compound = "Cn1cccc(NC(=O)NCc2cccc(CO)c2)c1=O"
measured = -1.059

[[record]]
compound = "CN(CCC#N)C(=O)CN1CCC(c2cc3ccccc3[nH]2)CC1"
measured = -2.857

[[record]]
compound = "O=C(CC(F)(F)F)N1CCc2[nH]nc(-c3ccc4c(c3)OCO4)c2C1"
measured = -1.74

[[record]]
compound = "OC1(CN2CCCC2)CCCN(Cc2cnc(-c3ccccc3)nc2)C1 (configuration not stated)"
measured = 1.78

[[record]]
compound = "O=C(CN1CCNC1=O)NCc1ccc2sccc2c1"
measured = 117.7

[[record]]
compound = "O=C(Cc1cccc(O)c1)N1CCCC(O)(CN2CCOCC2)CC1 (configuration not stated)"
measured = 193.2

[[record]]
compound = "O=C(CN1CCNCC1)NCc1ccc2sccc2c1"
measured = -21.43

[[record]]
compound = "Cc1n[nH]c(C)c1CCN(C)C(=O)c1ccc(CCC(C)(C)O)cc1"
measured = 11.25


====

Listing of recorded Percent Effect by entry.
tested on: Wolbachia pipientis; test: Anti-Wolbachia Cell-Based Screen; assay type: functional; set-up: scale not given: in the data most compounds retested in dose-response had high values; details: 5 µM
About 13,000 (27%) of roughly 48,000 compounds showed an effect of 50% or more. Some of the results follow.
observation_type: Percent Effect (%)

[[record]]
compound = "CNS(=O)(=O)Cc1ccccc1CNc1ccc(C#N)cn1"
observation_type = "Percent Effect"
measured = 4.345

[[record]]
compound = "NC(=O)C1CCN(C(=O)c2cccc(OCc3cscn3)c2)CC1"
observation_type = "Percent Effect"
measured = -9.747

[[record]]
compound = "CCC[C@H]1CN(C2CCOCC2)C[C@@H]1NC(=O)CCCn1ccnc1"
observation_type = "Percent Effect"
measured = -3.438

[[record]]
compound = "COCCNC(=O)[C@H]1C[C@@H]2CCN(c3ncccn3)C[C@H]2O1.O=C(O)C(F)(F)F"
observation_type = "Percent Effect"
measured = 108.2

[[record]]
compound = "N#CCCN(CC1CCOC1)Cn1ccc(-c2ccsc2)n1 (stereo unspecified)"
observation_type = "Percent Effect"
measured = -9.852

[[record]]
compound = "COCCNC(=O)[C@H]1C[C@@H]2CCN(c3ncccn3)C[C@@H]2O1"
observation_type = "Percent Effect"
measured = 107.5

[[record]]
compound = "O=C(O)C(F)(F)F.O=C(c1cnccn1)N1CCN2C[C@H](OCc3ccccc3)C[C@H]2C1"
observation_type = "Percent Effect"
measured = 0.9926

[[record]]
compound = "O=C(c1cccc(CNS(=O)(=O)c2ccc(F)cc2)c1)N1CCCC1"
observation_type = "Percent Effect"
measured = 130.7

[[record]]
compound = "CC(C)Cc1cc(C(=O)NC(C)(C)c2nnc(N)s2)n(C)n1"
observation_type = "Percent Effect"
measured = -11.71

[[record]]
compound = "CC(C)Oc1ncc(C(=O)N2CCc3ccc(O)cc3C2)cc1Cl"
observation_type = "Percent Effect"
measured = -26.56

[[record]]
compound = "Cc1ccc(S(=O)(=O)NCCNC(=O)c2ccoc2)cc1F"
observation_type = "Percent Effect"
measured = -0.905


====

Listing of recorded Percent Effect by entry.
system: Wolbachia pipientis; experiment: Anti-Wolbachia Cell-Based Screen; format: functional; parameters: scale not given: in the data most compounds retested in dose-response had high values; conditions: 5 µM
Hit rate of the full screen: of about 48,000 compounds, about 13,000 (27%) showed an effect of 50% or more. The list shows a part of the results.
observation_type: Percent Effect (%)

[[record]]
compound = "Cc1c(C(=O)OCC2CC(=O)N(c3ccccc3)C2)cnn1C(C)C (centres undefined)"
observation_type = "Percent Effect"
measured = 4.999

[[record]]
compound = "CN(Cc1ccno1)C(=O)c1cccc(CC2CCNCC2)c1"
observation_type = "Percent Effect"
measured = -13.23

[[record]]
compound = "Cc1cnn(CCC(=O)N2CCN(c3ccc(C#N)cn3)CC2)c1"
observation_type = "Percent Effect"
measured = 122.4

[[record]]
compound = "O=C1NCCN(C(=O)CCN2CCCO2)C1c1cccc(F)c1 (centres undefined)"
observation_type = "Percent Effect"
measured = -39.77

[[record]]
compound = "COc1ccc2c(c1)CCCN2C(=O)CN1CCOC(C)C1 (centres undefined)"
observation_type = "Percent Effect"
measured = -7.941

[[record]]
compound = "CCC(NCc1cccc(Cl)c1)c1ccccc1OCC(=O)NC (centres undefined)"
observation_type = "Percent Effect"
measured = -3.101

[[record]]
compound = "CN(C)S(=O)(=O)N(Cc1cscn1)c1ccccc1"
observation_type = "Percent Effect"
measured = 6.938

[[record]]
compound = "CCC(C(=O)NC1CCCCC1)n1cccc(OC)c1=O (centres undefined)"
observation_type = "Percent Effect"
measured = -2.043

[[record]]
compound = "Cc1cnn(CCC(=O)N2CCN(c3ncccc3Cl)CC2)c1"
observation_type = "Percent Effect"
measured = 8.116

[[record]]
compound = "Cc1nc(C)c(C(=O)N2CCc3cc(F)ccc3C2C)o1 (centres undefined)"
observation_type = "Percent Effect"
measured = -9.87

[[record]]
compound = "CC(C)(C)c1ccc2c(c1)CCN2C(=O)c1[nH]c(=O)[nH]c(=O)c1N"
observation_type = "Percent Effect"
measured = 1.564

[[record]]
compound = "Cc1cnn(CCC(=O)N2CCCN(c3ncccc3C#N)CC2)c1"
observation_type = "Percent Effect"
measured = 7.127

[[record]]
compound = "CC(C)N(CC(N)=O)CC(=O)N(C1=CCCCC1)C1CC1"
observation_type = "Percent Effect"
measured = -0.3485

[[record]]
compound = "O=C(c1cc2c([nH]c1=O)CCC2)N1CCCCC1c1cccc(F)c1 (centres undefined)"
observation_type = "Percent Effect"
measured = -12.81

[[record]]
compound = "CC(C)CNC(=O)CNC(=O)NCC(O)c1ccc2ccccc2c1 (centres undefined)"
observation_type = "Percent Effect"
measured = 1.707

[[record]]
compound = "CC(C)C1CN(C(=O)Nc2cnn(CC(F)F)c2)CCS1 (centres undefined)"
observation_type = "Percent Effect"
measured = -11.36

[[record]]
compound = "CCCN1CC(C(=O)Nc2ccccn2)CC1=O (centres undefined)"
observation_type = "Percent Effect"
measured = -15.01

[[record]]
compound = "Cc1nc(C)c(C(=O)N2CCc3ccc(F)cc3C2C)o1 (centres undefined)"
observation_type = "Percent Effect"
measured = 2.437

[[record]]
compound = "CC1c2cc(F)ccc2CCN1C(=O)c1[nH]c(=O)[nH]c(=O)c1N (centres undefined)"
observation_type = "Percent Effect"
measured = 103.3

[[record]]
compound = "N#Cc1cccnc1N1CCCN(C(=O)CCn2cncn2)CC1"
observation_type = "Percent Effect"
measured = 103.6

[[record]]
compound = "CCc1ccccc1OC1CN(C(=O)c2ccnc(OC)c2)C1"
observation_type = "Percent Effect"
measured = -7.047

[[record]]
compound = "Cc1cnn(CC(=O)N2CCCN(c3ncccc3C#N)CC2)c1"
observation_type = "Percent Effect"
measured = 99.25

[[record]]
compound = "Cc1ncsc1C(=O)NCc1cc2n(n1)CCN(C(=O)N(C)C)C2"
observation_type = "Percent Effect"
measured = -4.389

[[record]]
compound = "Cc1csc(CN2C[C@@H]3CN(CC4CCOCC4)CCO[C@@H]3C2)n1"
observation_type = "Percent Effect"
measured = -2.484

